Numbers sourced from ChEMBL document CHEMBL1240392.

Test method notes: Cmax in C57BL/6 mouse pneumonia model at 30 mg/kg, im
Type: ADME, organism-based
Parameters: dose 30 mg/kg, route intramuscular
Measurement parameters: in vivo
Readout name: Cmax (ng/mL)
One number for each entry, in ng/mL.

Cmax for C[C@@H](O)[C@H]1C(=O)N2C(C(=O)O)=C(SCCN=CN)C[C@H]12 [IMIPENEM ANHYDROUS] is 23200

###

Test method notes: Cmax in New Zealand rabbit meningitis model at 30 mg/kg, im
Assay type: ADME, organism-based, Oryctolagus cuniculus
Parameters: dose 30 mg/kg, route intramuscular
Measurement parameters: in vivo
Readout name: Cmax (µg/mL)
Give bare numbers, in µg/mL.

For CC1(C)[C@H](C(=O)O)N2C(=O)C[C@H]2S1(=O)=O [SULBACTAM] the compound record lists Cmax as 75.3
